Test: blockers of RIG-like receptor reporter activation – cell-based, Sendai virus stimulus, luciferase, 10K MLSCN set, TLR/RLR signaling modifier project, primary screen (AID 602276);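 also: firefly luciferase from ISG56 promoter only with Renilla not read in this screen; 0% = Sendai virus plus DMSO and 100% = medium plus DMSO without virus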
Conditions: HEK293 RL24 IRF3 luciferase reporter, at 10 µM, stronger effect = higher value
# Lookup of reported inhibition keyed by entry
quantity: inhibition (%)

> print(dat)
                                    compound    quantity  readout.value
 1  CCC(=O)N(Cc1cc2c(C)ccc(C)c2[nH]c1=O)C1CCCCC1  inhibition           13.6
 2  CC(=O)NCC(=O)OC(C)C(=O)Nc1ccc(C(C)=O)cc1 (stereo not drawn)  inhibition         -0.376
 3  CC(C)(C)C1CCc2onc(C(=O)Nc3cnn(Cc4ccc(F)cc4)c3)c2C1 (stereo not drawn)  inhibition             12
 4  O=C(COc1ccc2c(c1)OCO2)NC12CC3CC(CC(C3)C1)C2  inhibition          -38.5
 5      Cc1nnc(SCC(=O)NC(C)(C)C)n1CCc1ccccc1  inhibition           11.7
 6      COC(=O)c1cc(Br)c(=O)n(CCC2=CCCCC2)c1  inhibition          -1.92
 7  COc1cc2[nH]c(=O)n(CCCCCC(=O)NCCCN3CCCC3=O)c(=O)c2cc1OC  inhibition           13.3
 8         COCCCNC(=O)CCc1nc(-c2ccccc2Cl)no1  inhibition           17.7
 9   COc1cccc(Nc2c(F)c(F)c(F)c(F)c2C(=O)O)c1  inhibition           10.2
10      CC(=O)Nc1cccc(-c2nnc(-c3ccccc3)o2)c1  inhibition          -35.6
11  O=c1c(F)cn(C2CCCO2)c(=O)n1Cc1c(F)cccc1Cl (stereo not drawn)  inhibition           5.15
12  CN1[C@@H]2CC(OC(=O)[C@H](CO)c3ccccc3)C[C@H]1[C@@H]1O[C@@H]12 (stereo partly drawn)  inhibition           2.34
13  COc1ccc(OC)c(NC(=O)c2cn(C)c(=O)c3cc(OC)c(OC)cc23)c1  inhibition          -16.7
14       CCS(=O)(=O)N1CCC(C(=O)NC2CCCCC2)CC1  inhibition             10
15  Cc1ccc(C)c(-n2c(Cc3cc(=O)[nH]c(=O)[nH]3)nnc2SCC(=O)NCc2ccco2)c1  inhibition             -2
16          CC(C)(C)c1cc(C(=O)O)nn1-c1ccccc1  inhibition           15.1
17  COc1ccc(OC)c(S(=O)(=O)Nc2ccccc2C(=O)O)c1  inhibition           23.8
18  Cc1ccc(-n2nnnc2SCC(=O)N2CCc3ccccc3C2)cc1  inhibition           8.66
19              O=C(NCc1ccco1)c1noc2c1CCCCC2  inhibition             -4
20            C[C@H](NC(=O)Nc1ccccc1F)C(=O)O  inhibition           14.6
21  COc1ccc(NC(=O)CCCN2C(=O)C3C4C=CC(C4)C3C2=O)c(OC)c1 (stereo not drawn)  inhibition           9.13
22   Fc1c(F)c(F)c(CSc2nc3ccccc3[nH]2)c(F)c1F  inhibition          -6.35
23  c1ccc(Cn2nnnc2C(c2ccccn2)N2CCOCC2)cc1 (stereo not drawn)  inhibition          -6.48

* * *

Test: endothelial E-selectin expression blockers – imaging, HUVEC, immunofluorescence, MLSMR starter and 10KST1 sets, primary screen (AID 487);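 as to inhibition: signal is fraction of cell area covered by stained E-selectin grains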
Settings: HUVEC TNFalpha-induced E-selectin immunofluorescence imaging, at 2 µM; stronger effect = higher value
Calls of active or inactive are those of the source.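 How the source made its calls: active means visually confirmed hit in the image check and inhibition above 20%; inconclusive means visually confirmed hit but inhibition not above 20%; inactive means no visual hit in the image check.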
quantity: inhibition

> print(dat)
                                    molecule    quantity      readout.value
 1  CCOC(=O)c1nn(-c2sc(C(=O)OC)c(C)c2C(=O)OC)cc1O  inhibition    0.1% (inactive)
 2  CC1=C(C#N)C(c2ccc3ncccc3c2)C(C#N)=C(C)N1  inhibition  -66.3% (inactive)
 3  Cc1ccc(-c2c3c(=O)n(C)c(=O)n(C)c3cn2CCCN2CCOCC2)cc1  inhibition    -32% (inactive)
 4  COC(=O)c1oc2ccc(Br)cc2c1NC(=O)CN1CCN(C)CC1  inhibition   30.2% (inactive)
 5  O=C(OCc1nnc(-c2ccccc2)o1)c1ccc(S(=O)(=O)NCc2ccco2)cc1  inhibition  -51.8% (inactive)
 6    Cc1nc(NCCNC(=O)c2ccco2)c2c(C)c(C)sc2n1  inhibition  -34.1% (inactive)
 7  COc1ccccc1C1c2c(oc3ccc(Cl)cc3c2=O)C(=O)N1c1cc(C)on1 (configuration not stated)  inhibition  -13.8% (inactive)
 8               CN(C)CCOC(c1ccccc1)c1ccccc1  inhibition     -7% (inactive)
 9   COC(=O)Nc1nc2ccc(C(=O)c3ccccc3)cc2[nH]1  inhibition  -48.7% (inactive)
10  Cc1cnc(C(=O)NCCc2ccc(S(=O)(=O)NC(=O)NC3CCCCC3)cc2)cn1  inhibition   -102% (inactive)
11  O=C(Nc1ccc(Cl)c(Cl)c1)Nc1cc(C(=O)N2CCOCC2)ccc1N1CCCCC1  inhibition  -44.8% (inactive)
12  CC1c2nc3ccccc3n2C(CC(=O)NCc2ccccn2)C(=O)N1Cc1ccccc1 (configuration not stated)  inhibition   -115% (inactive)
13  COCCN1C(=O)C(=O)/C(=C(/O)c2cccc(OC)c2)C1c1ccncc1 (configuration not stated)  inhibition   54.5% (inactive)
14  CCn1ncc(C2=NOC(C(=O)NCc3ccc(Cl)cc3)C2)c1C (configuration not stated)  inhibition   -240% (inactive)
15  COc1ccc(CC(=O)NCc2ccccc2)cc1S(=O)(=O)N1CCOCC1  inhibition  -26.1% (inactive)
16                   CC(=O)N[C@@H](CS)C(=O)O  inhibition  -49.2% (inactive)
17  COC(=O)C1(C)NC(c2ccco2)C2C(=O)N(c3ccc(C)cc3)C(=O)C21 (configuration not stated)  inhibition  -40.3% (inactive)
18  O=C(COn1nnc2ccc(C(F)(F)F)cc21)Nc1nnc(-c2ccccc2)o1  inhibition      108% (active)
19             Nc1nonc1-c1noc(-c2ccccc2Br)n1  inhibition  -23.9% (inactive)
20  COC(=O)c1cc(NC(=O)C2CC=CCC2C(=O)O)cc(C(=O)OC)c1 (configuration not stated)  inhibition    5.2% (inactive)
21  O=C1CC2CS(=O)(=O)CC2N1c1ccc(Oc2ccccc2)cc1 (configuration not stated)  inhibition  -33.8% (inactive)
22    C=CCSc1nnc(-c2ccccc2NC(C)=O)c(=O)[nH]1  inhibition  -60.3% (inactive)

* * *

# Lookup of reported nuclei count keyed by entry
Experiment: endothelial E-selectin expression blockers – imaging, HUVEC, immunofluorescence, MLSMR starter and 10KST1 sets, primary screen (AID 487);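 as to nuclei count: 100% = median nuclei count of all wells on the same plate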
Settings: HUVEC TNFalpha-induced E-selectin immunofluorescence imaging, at 2 µM; measured here: cell number, toxicity
quantity: nuclei count (%)

> print(dat)
                                    compound  result.units  readout.value
 1  CCOc1ccc(N2CC(C(=O)Nc3ccc(F)cc3F)CC2=O)cc1 (stereo unspecified)             %           99.9
 2  COc1ccc(OC)c(NC(=O)C2CCN(c3cc(-c4ccccc4)nc4ncnn34)CC2)c1             %            150
 3  O=C(Nc1ccc2nn(-c3ccccc3)nc2c1)c1ccc(Br)o1             %            101
 4                CNC(=O)Nc1cccc(C(F)(F)F)c1             %            130
 5                C=C(Br)CN1CCN(CC(=C)Br)CC1             %            175
 6           COC(=O)CCCCCNc1ccc(C(=O)OC)cc1N             %            122
 7  O=C(Nc1cccc(F)c1)N1CC=C(n2c(=O)[nH]c3ccccc32)CC1             %           83.5
 8  CCOC(=O)c1[nH]nc(-c2c(O)cc(C)cc2O)c1-c1csc(C)n1             %           61.3
 9  Fc1ccc(C(c2ccc(F)cc2)N2CCN(C/C=C/c3ccccc3)CC2)cc1             %            124
10  COc1ccc(C(C(C(=O)c2cccs2)N2CCOCC2)N2CCOCC2)cc1OC (stereo unspecified)             %            106
11  COc1ccc(CN2C(=O)C(O)(CC(=O)c3c(C)n[nH]c3C)c3ccccc32)cc1OC (stereo unspecified)             %           97.3
